Origin of values: patent US4522824A

Tested on: β-adrenergic receptors
TEST_PROTOCOL: Antagonism of the effects of isoprenaline (tachycardia) in the anaesthetized dog
Type: in vivo
RUN_CONDITIONS: dose inhibiting 80% of the tachycardia induced by i.v. isoprenaline, intravenous
Protocol: In vivo pharmacological action in the dog The dog is anaesthetized with sodium pentobarbital, administered by the intravenous route at the dose of 30 mg/kg. A cannula placed in the short saphenous vein allows the products to be injected intravenously. The animal is intubated and allowed to breathe spontaneously. […]
RECORDED_METRIC: ID80 isoprenaline, β-effect (mg/kg)
Numeric answer only, unit mg/kg assumed.

Respond only with ID80 isoprenaline, β-effect recorded for CCOC(=O)c1cc2c(OCC(O)CNC(C)(C)Cc3c[nH]c4ccccc34)cccc2[nH]1 (stereo not shown) [CM40593]
0.1

Respond only with ID80 isoprenaline, β-effect recorded for CCOC(=O)c1cc2c(OCC(O)CNC(C)(CO)Cc3c[nH]c4ccccc34)cccc2[nH]1 (stereo not shown) [SR41832]
0.1

Respond only with ID80 isoprenaline, β-effect recorded for CC(C)(Cc1c[nH]c2ccccc12)NCC(O)COc1cccc2[nH]c(C(N)=O)cc12 (stereo not shown) [CM41105]
0.1

Respond only with ID80 isoprenaline, β-effect recorded for CC(C)(Cc1c[nH]c2ccccc12)NCC(O)COc1cccc2[nH]c(C(=O)O)cc12 (stereo not shown) [SR41828A]
0.3

Respond only with ID80 isoprenaline, β-effect recorded for CC(C)(Cc1c[nH]c2ccccc12)NCC(O)COc1cccc2[nH]c(C#N)cc12 (stereo not shown) [SR41370A]
0.05

Respond only with ID80 isoprenaline, β-effect recorded for CCOC(=O)c1cc2c(OCC(O)CNC(C)(C)Cc3c[nH]c4ccc(OC)cc34)cccc2[nH]1 (stereo not shown) [SR41648]
0.1

Respond only with ID80 isoprenaline, β-effect recorded for CCCCN(CCCC)C(=O)c1cc2c(OCC(O)CNC(C)(C)Cc3c[nH]c4ccccc34)cccc2[nH]1 (stereo not shown) [SR41830A]
1

Respond only with ID80 isoprenaline, β-effect recorded for CC(C)(Cc1c[nH]c2ccccc12)NCC(O)COc1cccc2[nH]c(CO)cc12 (stereo not shown) [CM41165]
0.05

Respond only with ID80 isoprenaline, β-effect recorded for CCOC(=O)c1cc2c(OCC(O)CNC(C)(C)Cc3c[nH]c4ccc(C#N)cc34)cccc2[nH]1 (stereo not shown) [SR41831A]
0.1

Respond only with ID80 isoprenaline, β-effect recorded for CCOC(=O)c1cc2c(OCC(O)CNC(C)Cc3c[nH]c4ccccc34)cccc2[nH]1 (racemic) [SR41294A]
0.1
